target: myeloperoxidase (MPO) (Homo sapiens (Human)); experiment: MPO peroxidation assay (Amplex Red); format: biochemical; settings: Table 1
measure_name: pIC50
Expect pIC50 as a plain number equal to -log10 of the molar concentration.

# input For the compound shown here, Nc1cc(SCc2cc(C(F)(F)F)ccc2C(F)(F)F)c2nn[nH]c2n1 , give the reported pIC50.
# output 8.00

# input Cool, now N#Cc1ccc(C2CC2)c(CSc2cc(N)nc3[nH]nnc23)c1
# output 7.52

# input What do you get for Cc1nn(-c2ccc(F)cc2)c(C)c1CSc1cc(N)nc2[nH]nnc12 ?
# output 6.34

# input Now give it for Nc1cc(SCc2cc(F)c(-c3ncon3)cc2F)c2nn[nH]c2n1 too.
# output 8.00

# input Let us now turn to Nc1cc(SCc2ccccc2F)c2nn[nH]c2n1
# output 8.15

# input // same read-out, input: Nc1cc(SCc2cn(-c3cccnn3)nc2C(F)F)c2nn[nH]c2n1
# output 7.40

# input Check Cc1ncn(C)c1CSc1cc(N)nc2[nH]nnc12 too.
# output 6.85

# input Now consider Nc1cc(SCc2ncccn2)c2nn[nH]c2n1 .
# output 7.00

# input Further, for CCn1ncc(CSc2nc(N)nc3[nH]nnc23)c1C(F)(F)F ?
# output 6.66

# input // next record Nc1cc(SCc2cc(F)ccc2OC(F)(F)F)c2nn[nH]c2n1
# output 8.00

# input Further, for Nc1cc(SCc2ccccc2CN2CCC(Oc3ccccc3)C2)c2nn[nH]c2n1 (centres unmarked) ?
# output 6.28

# input Same for Nc1cc(SCc2ccccc2-n2cccn2)c2nn[nH]c2n1
# output 7.70

# input Further, for Nc1cc(SC(CO)c2ccccc2)c2nn[nH]c2n1 (centres unmarked) ?
# output 7.70

# input Ok, now Nc1cc(SCc2cn(-c3ccc(N4CCCC4)nc3)nc2C(F)(F)F)c2nn[nH]c2n1
# output 6.77

# input Follow-up entry: Cc1nn(-c2ccccc2)c(Cl)c1CSc1cc(N)nc2[nH]nnc12
# output 7.52

# input // query: CCOC(=O)c1cc(CSc2cc(N)nc3[nH]nnc23)n(C)n1
# output 7.30

# input Please give the result for Nc1cc(SCc2cnn(C3CCCCC3)c2C(F)(F)F)c2nn[nH]c2n1 too.
# output 7.00

# input Further, for CC(Sc1cc(N)nc2[nH]nnc12)c1ccccc1 (centres unmarked) ?
# output 8.00

# input Record: Nc1cc(SCc2cn(-c3cnccn3)nc2C(F)F)c2nn[nH]c2n1
# output 7.52

# input Try CCC(Sc1cc(N)nc2[nH]nnc12)c1ccccc1 (centres unmarked) next.
# output 7.70

* * *

Record form. Attribute: pIC50. Fill in for each entry.
biological target: myeloperoxidase (MPO) (Homo sapiens (Human)); experiment: MPO chlorination assay (APF); type: biochemical; details: MPO chlorination assay, ranges given; read-out: MPO chlorination assay IC50
pIC50: −log10 of the molar value.

# input Given CS(=O)(=O)c1cc(Cl)ccc1CSc1cc(N)nc2[nH]nnc12 , state its recorded pIC50.
# output ≥ 7.22

# input Now the same for N#Cc1cc(Br)ccc1CSc1cc(N)nc2[nH]nnc12
# output 6.70 to 7.22

# input Can you check COC(=O)c1ccc2nc(CSc3cc(N)nc4[nH]nnc34)ccc2c1 next?
# output 6.00 to 6.70

# input Also Nc1cc(SCc2cnn(-c3ccccc3)c2C(F)(F)F)c2nn[nH]c2n1 , if possible.
# output 6.70 to 7.22

# input Then this compound: N#Cc1cccc(F)c1CSc1cc(N)nc2[nH]nnc12
# output ≥ 7.22

* * *

biological target: myeloperoxidase (MPO) (Homo sapiens (Human), UniProt P05164); experiment: MPO chlorination assay (APF); format: biochemical; conditions: MPO chlorination assay, ranges given; read-out: MPO chlorination assay IC50
Sequence (P05164 49-745): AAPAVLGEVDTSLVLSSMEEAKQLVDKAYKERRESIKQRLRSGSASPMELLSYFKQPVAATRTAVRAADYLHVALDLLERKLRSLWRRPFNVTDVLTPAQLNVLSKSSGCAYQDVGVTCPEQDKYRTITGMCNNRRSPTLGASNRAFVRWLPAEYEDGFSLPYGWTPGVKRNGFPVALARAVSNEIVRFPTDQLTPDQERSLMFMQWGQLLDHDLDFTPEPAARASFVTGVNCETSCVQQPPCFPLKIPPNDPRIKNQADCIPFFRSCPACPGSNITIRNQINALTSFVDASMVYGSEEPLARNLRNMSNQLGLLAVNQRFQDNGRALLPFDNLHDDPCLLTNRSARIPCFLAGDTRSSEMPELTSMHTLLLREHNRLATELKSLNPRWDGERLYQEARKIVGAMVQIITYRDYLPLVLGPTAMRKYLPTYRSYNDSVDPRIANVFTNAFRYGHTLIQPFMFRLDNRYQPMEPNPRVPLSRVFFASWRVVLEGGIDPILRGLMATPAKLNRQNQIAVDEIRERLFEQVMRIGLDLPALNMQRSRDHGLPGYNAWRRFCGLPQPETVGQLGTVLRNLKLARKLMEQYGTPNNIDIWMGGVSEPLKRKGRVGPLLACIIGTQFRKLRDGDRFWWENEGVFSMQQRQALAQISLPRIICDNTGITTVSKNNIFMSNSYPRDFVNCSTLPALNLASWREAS
Kindly supply the reported IC50 values for the records listed here.

# input Field request: IC50 | item: Cn1nc(C(F)(F)F)c(CSc2nc(N)nc3[nH]nnc23)c1F
# output 200 to 1000 nM

# input Then Cn1ncc(CSc2nc(N)nc3[nH]nnc23)c1C(F)(F)F ?
# output 200 to 1000 nM

# input Also Nc1cc(SCc2c(F)ccc(Br)c2F)c2nn[nH]c2n1 ?
# output ≤ 60 nM

# input Let us now turn to N#Cc1ccc(-n2cccn2)cc1CSc1cc(N)nc2[nH]nnc12
# output ≤ 60 nM

# input And the next one, N#Cc1cccc(Cl)c1CSc1cc(N)nc2[nH]nnc12 ?
# output ≤ 60 nM

# input Item: Cc1nn(-c2ccccc2)c(Cl)c1CSc1nc(N)nc2[nH]nnc12
# output 60 to 200 nM

# input Can you check N#Cc1ccc(CSc2cc(N)nc3[nH]nnc23)c(C2CC2)c1 next?
# output ≤ 60 nM

# input Next: Nc1cc(SCc2cc(Cl)ccc2S(=O)(=O)Cc2ccccc2)c2nn[nH]c2n1
# output 60 to 200 nM

# input Now consider Nc1cc(SCc2ccccc2-c2ccccn2)c2nn[nH]c2n1 .
# output 60 to 200 nM

# input Try Nc1cc(SCc2cccc3c2OC(F)(F)O3)c2nn[nH]c2n1 next.
# output 60 to 200 nM

# input Also, N#Cc1c(Cl)cccc1CSc1cc(N)nc2[nH]nnc12 please.
# output 60 to 200 nM

# input Subsequent entry: Nc1cc(SCc2c(F)cccc2F)c2nn[nH]c2n1
# output ≤ 60 nM

# input Next entry: N#Cc1cc(Cl)ccc1CSc1cc(N)nc2[nH]nnc12
# output ≤ 60 nM

# input Request: Nc1cc(SCc2cn(-c3ccccc3)nc2C2CC2)c2nn[nH]c2n1
# output ≤ 60 nM

# input Input N#Cc1cn(-c2ccccc2)nc1CSc1cc(N)nc2[nH]nnc12
# output 200 to 1000 nM

# input Cool, now N#Cc1ccc(C2CC2)cc1CSc1cc(N)nc2[nH]nnc12
# output ≤ 60 nM

# input Same question for Nc1cc(SCc2cc(F)ccc2F)c2nn[nH]c2n1 please.
# output ≤ 60 nM

# input Follow-up entry: Nc1cc(SCc2ccccc2CN2CCC2)c2nn[nH]c2n1
# output 60 to 200 nM

# input Moving on to Cn1nc(-c2ccccc2)c(F)c1CSc1cc(N)nc2[nH]nnc12
# output ≤ 60 nM

# input Now the molecule Cc1nn(C2CCC2)c(C)c1CSc1cc(N)nc2[nH]nnc12
# output 60 to 200 nM

# input Next entry: CC(Sc1cc(N)nc2[nH]nnc12)c1ccccc1S(C)(=O)=O (stereo not drawn)
# output 60 to 200 nM

# input Now the same for N#Cc1ccc(-c2ccncc2)c(CSc2cc(N)nc3[nH]nnc23)c1
# output ≤ 60 nM

# input Next entry: Nc1cc(SCc2cccc(F)c2)c2nn[nH]c2n1
# output ≤ 60 nM

# input What about N#Cc1ccc(CSc2cc(N)nc3[nH]nnc23)c(Cl)c1 ?
# output 200 to 1000 nM

# input Same thing, different molecule: Cc1oc(-c2c(F)cc(F)cc2F)nc1CSc1cc(N)nc2[nH]nnc12
# output 200 to 1000 nM

# input Would you mind doing Cc1nn(-c2ccccc2)nc1CSc1cc(N)nc2[nH]nnc12 as well?
# output 60 to 200 nM

# input Likewise for CN(C)Cc1cccc(CSc2cc(N)nc3[nH]nnc23)c1 ?
# output ≤ 60 nM

# input Also need Cn1nc(CSc2cc(N)nc3[nH]nnc23)cc1-c1ccccc1 , thanks.
# output 60 to 200 nM

# input Also Nc1cc(SCc2cn(-c3cccnc3)nc2C(F)(F)F)c2nn[nH]c2n1 , if possible.
# output ≤ 60 nM

# input And then Cc1cc(CSc2cc(N)nc3[nH]nnc23)n(C)n1 , what is it?
# output 200 to 1000 nM

* * *

Give measured pIC50 for each item. Keep answers brief.
target: myeloperoxidase (MPO) (Homo sapiens (Human)); assay: MPO chlorination assay (APF); assay type: biochemical; details: MPO chlorination assay, ranges given; read-out: MPO chlorination assay IC50
pIC50: −log10 of the molar value.

# input Need pIC50, item Cc1cc(CSc2cc(N)nc3[nH]nnc23)c(Cl)nc1Cl [Example 24]
# output 6.70 to 7.22

# input Param item: Cn1nc(C2CC2)c(Cl)c1CSc1cc(N)nc2[nH]nnc12 [Example 111]
# output 6.70 to 7.22

# input Now try Cn1nc(C2CC2)cc1CSc1cc(N)nc2[nH]nnc12 [Example 100] .
# output 6.70 to 7.22

# input Quick one: Nc1cc(SCc2nn(Cc3ccccc3)c3ccccc23)c2nn[nH]c2n1 [Example 62]
# output 6.70 to 7.22

# input Please give the result for N#Cc1cc(F)ccc1CSc1cc(N)nc2[nH]nnc12 [Example 56] too.
# output ≥ 7.22

# input Same question, Cc1nn(C2CC2)c(C)c1CSc1cc(N)nc2[nH]nnc12 [Example 81] this time
# output 6.70 to 7.22
